// provenance: paper PMC11062922

tested on: PKN1; design: species or system human, MV4-11 + K-562 + COLO205 + SK-N-BE2 + OVCAR-8; settings: compound concentrations:0.3nM, 1nM, 3nM, 10nM, 30nM, 100nM, 300nM, 1000nM,R2:0.99748458534068796,slope:1.1297658372901001,EC50 Standard Error, by the legend:Standard error of the EC50 estimation as provided by the drc package.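 Also: competition pulldown with Kinobeads ε in cell lysates, inhibitor preincubated 45 min at 4 °C, bound kinases quantified by LC–MS/MS against DMSO control.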
READOUT: EC50

COMPOUND	READOUT	VALUE_REPORTED
CCn1c(-c2nonc2N)nc2c(C#CC(C)(C)O)nc(OCCN)cc21.CCn1c(-c2nonc2N)nc2c(C#CC(C)(C)O)nc(OCCN)cc21.Cl.Cl [GSK902056A]	EC50	92.3 nM

====

potency estimated from few doses by entry:
system: CSNK1E; design: species or system human, MV4-11 + K-562 + COLO205 + SK-N-BE2 + OVCAR-8; conditions: read-out: apparent Kd; compound concentrations:100 nM and 1000 nM (sheet 'Samples'); n = 1
READOUT: potency estimated from few doses (nM)

MOLECULE	VALUE_REPORTED
CC(C)N1CCC(n2cnc(-c3ccc(F)cc3)c2-c2ccnc(N)n2)CC1 [SB-223132]	77.8
Cc1ccc2c(-c3ccncc3)c(-c3ccc(F)cc3)nn2c1.Cl [GW461484A]	673
Cl.ON=C1CCc2cc(-c3nc(C4CCNCC4)[nH]c3-c3ccncc3)ccc21 [SB-614067-R]	1190
c1ccc(-c2n[nH]cc2-c2ccnc3ccccc23)nc1 [GW271431X]	712
Cc1cc(NC(=O)c2cccc(NC(=O)/C=C/CN(C)C)c2)ccc1Nc1nccc(-c2cccnc2)n1 [JNK-IN-7]	2010
CCc1ccc(Oc2nccc(-c3c(-c4ccc(F)cc4)ncn3C3CCNCC3)n2)cc1 [SB-242719]	760
Cc1cccc2c(-c3ccncc3)c(-c3ccc(F)cc3)nn12.Cl [GW461487A]	879
Fc1ccc(-c2ncn(C3CCNCC3)c2-c2ccnc(Oc3ccc(-c4ccccc4)cc3)n2)cc1 [SB-245391]	1840

====

tested on: MAP4K5; design: species or system human, MV4-11 + K-562 + COLO205 + SK-N-BE2 + OVCAR-8; details: read-out: apparent Kd; compound concentrations:100 nM and 1000 nM (sheet 'Samples'); n = 1

COMPOUND	potency estimated from few doses [nM]
COc1cc2ncn(-c3cc(OCc4sccc4Cl)c(C(N)=O)s3)c2cc1OC [GSK448459A]	30.8
C[C@@H](Oc1cc(-n2cnc3cc(-c4cnn(C)c4)ccc32)sc1C(N)=O)c1ccccc1Cl [GSK580432A]	1040
C[C@@H](Oc1cc(-n2cnc3ccc(OCC4CCN(C)CC4)cc32)sc1C(N)=O)c1ccccc1C(F)(F)F [GSK326090A]	203
COc1cc2ncn(-c3cc(O[C@@H](C)c4ccccc4Cl)c(C(N)=O)s3)c2cc1OC [GSK237700A]	2080
Cn1cc(-c2cnc(N)c3c(-c4ccc5c(c4)CCN5C(=O)Cc4ccccc4)csc23)cn1 [GSK2593074A]	302
C[C@@H](Oc1cc(-n2cnc3ccc(OCC4CCN(C)CC4)cc32)sc1C(N)=O)c1ccccc1Cl [GSK571989A]	1670
C[C@@H](Oc1cc(-n2cnc3cc(-c4ccncc4)ccc32)sc1C(N)=O)c1ccccc1Cl [GSK479719A]	2270

====

system: ZAK; design: species or system human, MV4-11 + K-562 + COLO205 + SK-N-BE2 + OVCAR-8; details: read-out: apparent Kd; compound concentrations:100 nM and 1000 nM (sheet 'Samples'); n = 1
READOUT: potency estimated from few doses (nM)

COMPOUND	VALUE_UNIT	VALUE_REPORTED
CN(C)CCOc1ccc(-c2cc(-c3c[nH]nc3-c3ccccn3)ccn2)cc1 [GW835314X]	nM	1820
CC(C)c1nc(-c2ccc(F)c(NS(=O)(=O)c3c(F)cccc3F)c2)c(-c2ccnc(Nc3ccc(N4CCOCC4)nc3)n2)s1 [GSK1804250A]	nM	1410
C=CC(=O)Nc1cc(-n2c(=O)ccc3cnc4ccc(-c5ccc(NS(C)(=O)=O)cc5)cc4c32)ccc1C [BMX-IN-1]	nM	782
CNS(=O)(=O)c1ccc(N(C)C)c(Nc2ncnc3cc(OC)c(OC)cc23)c1 [GSK114]	nM	646

====

Overview of reported potency estimated from few doses across a group of compounds:
system: MELK; design: species or system human, MV4-11 + K-562 + COLO205 + SK-N-BE2 + OVCAR-8; settings: read-out: apparent Kd; compound concentrations:100 nM and 1000 nM (sheet 'Samples'); n = 1

COMPOUND	potency estimated from few doses
COc1cc(/C=N/Nc2ncnc3[nH]ncc23)ccc1O [GW578748X]	2.39 µM
CCn1c(-c2nonc2N)nc2cncc(C(=O)N3CCNCC3)c21.Cl	1.04 µM
NS(=O)(=O)c1ccc(N/N=C2\C(=O)Nc3ccc(C(=O)NCCc4c[nH]cn4)cc32)cc1 [GW300660X]	2.18 µM
Nc1nccc(-c2ccc3c(N)n[nH]c3c2)n1 [GSK1034945A]	0.828 µM
CNc1cc(-c2ccc3c(N)n[nH]c3c2)nc(N)n1 [GSK2224810A]	0.898 µM
Nc1nc(Nc2ccccc2)cc(-c2ccc3c(N)n[nH]c3c2)n1 [GSK2225749A]	0.823 µM
CCn1c(-c2nonc2N)nc2cncc(Br)c21	1.66 µM
NCCNS(=O)(=O)c1ccc(-c2ccnc3[nH]ccc23)cc1 [GSK977617A]	0.866 µM
CC(C)Nc1cc(-c2ccc3c(N)n[nH]c3c2)nc(N)n1 [GSK2221681A]	1.13 µM

====

system: PKN3; settings: read-out: Average; hek293t cells; SD, n = 4;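 also: NanoBRET target engagement in HEK293T cells transiently expressing full-length PKN3 with C-terminal NanoLuc, displacement of fluorescent tracer K5 (500 nM), BRET read after 2 h equilibration at 37 °C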
Examples of molecules with documented IC50 follow.
READOUT: IC50 (nM)

MOLECULE	VALUE_REPORTED
CCn1c(-c2nonc2N)nc2c(C#CC(C)(C)O)nc(OC[C@@H](N)c3ccccc3)cc21 [GSK938890A]	97.8
CCn1c(-c2nonc2N)nc2c(C#CC(C)(C)O)nc(OCCNC)cc21.Cl [GSK949675A]	669
CCn1c(-c2nonc2N)nc2c(C#CCN)ncc(OCCCN)c21.O=C(O)C(F)(F)F [GSK561866B]	7970
Cl.ON=C1CCc2cc(-c3nc(C4CCNCC4)[nH]c3-c3ccncc3)ccc21	22900
CCn1c(-c2nonc2N)nc2c(C#CC(C)(C)O)nc(OCCN)cc21.CCn1c(-c2nonc2N)nc2c(C#CC(C)(C)O)nc(OCCN)cc21.Cl.Cl [GSK902056A]	99.2

====

Listed here: items and their measured potency estimated from few doses.
test system: ADCK3; design: species or system human, MV4-11 + K-562 + COLO205 + SK-N-BE2 + OVCAR-8; conditions: read-out: apparent Kd; compound concentrations:100 nM and 1000 nM (sheet 'Samples'); n = 1

COMPOUND	potency estimated from few doses / nM
Nc1ncc(-c2cccnc2)c2scc(-c3ccc4c(c3)CCN4C(=O)Cc3ccccc3)c12 [GSK683281A]	760
CN(C)CCOc1ccc(-c2nc(-c3ccc4c(c3)CC/C4=N/O)c(-c3ccncc3)[nH]2)cc1 [SB-590885_KCGS]	1150
Nc1nc(-c2ccc3c(N)n[nH]c3c2)cc(N2CCC[C@@H](C(=O)Nc3ccccc3)C2)n1.Nc1nc(-c2ccc3c(N)n[nH]c3c2)cc(N2CCC[C@@H](C(=O)Nc3ccccc3)C2)n1.O=C(O)C(F)(F)F.O=C(O)C(F)(F)F [GSK2288359A]	1100
CNC(=O)c1ccc(C)c(-n2c(C)cc(OCc3ccc(F)cc3F)c(Br)c2=O)c1 [PFE-PKIS_41]	1260

====

tested on: PDGFRB; design: species or system human, MV4-11 + K-562 + COLO205 + SK-N-BE2 + OVCAR-8; conditions: read-out: apparent Kd; compound concentrations:100 nM and 1000 nM (sheet 'Samples'); n = 1
READOUT: potency estimated from few doses (nM)

COMPOUND	VALUE_UNIT	VALUE_REPORTED
CC(C)Oc1ccc2c(-c3ccnc(Nc4ccc(N5CCN(C)CC5)cc4)n3)cnn2n1 [GW696155X]	nM	2040
CN(C)CCNC(=O)Nc1ccc(N(C)c2ccnc(Nc3ccc(CS(C)(=O)=O)cc3)n2)cc1.Cl [GW830900A]	nM	1330
NS(=O)(=O)c1ccc(Nc2ncc(-c3ccccc3)o2)cc1 [GW572399X]	nM	1480
CN1CCC(C(=O)Nc2n[nH]c3nc(-c4ccc(O)cc4)c(Br)cc23)CC1.O=C(O)/C=C\C(=O)O [SB-732881-H]	nM	1730

====

This section presents molecules with their documented potency estimated from few doses values.
tested on: CDKL5; set-up: species or system human, MV4-11 + K-562 + COLO205 + SK-N-BE2 + OVCAR-8; conditions: read-out: apparent Kd; compound concentrations:100 nM and 1000 nM (sheet 'Samples'); n = 1
READOUT: potency estimated from few doses

MOLECULE	READOUT	VALUE_REPORTED
CN1CCC(C(=O)Nc2n[nH]c3nc(-c4ccc(O)cc4)c(Br)cc23)CC1.O=C(O)/C=C\C(=O)O	potency estimated from few doses	21 nM
COc1cc2ncn(-c3cc(OCc4ccccc4C(F)(F)F)c(C(N)=O)s3)c2cc1OC [GW843682X]	potency estimated from few doses	2330 nM
COc1ccc(C[C@@H](CN)NC(=O)c2cc(Br)c(-c3ccnc4[nH]ccc34)s2)cc1.COc1ccc(C[C@@H](CN)NC(=O)c2cc(Br)c(-c3ccnc4[nH]ccc34)s2)cc1.Cl.Cl [GSK1389063A]	potency estimated from few doses	1370 nM
CC(C)N1CCC(n2cnc(-c3ccc(F)cc3)c2-c2ccnc(N)n2)CC1	potency estimated from few doses	1520 nM
CN1CCC(C(=O)Nc2n[nH]c3nnc(-c4ccccc4)cc23)CC1.Cl	potency estimated from few doses	75.2 nM
COc1cccc(-c2c[nH]c3c(N/N=C/c4ccncc4)ncnc23)c1 [GW814408X]	potency estimated from few doses	1300 nM
CN1CCC(C(=O)Nc2n[nH]c3nc(-c4ccc(O)cc4)c(Br)cc23)CC1	potency estimated from few doses	852 nM
